Data origin: patent US11299493B2

A collection of molecules and their measured log10 IC50
- Test System: UniProt:P30291
- Sequence (P30291 whole entry): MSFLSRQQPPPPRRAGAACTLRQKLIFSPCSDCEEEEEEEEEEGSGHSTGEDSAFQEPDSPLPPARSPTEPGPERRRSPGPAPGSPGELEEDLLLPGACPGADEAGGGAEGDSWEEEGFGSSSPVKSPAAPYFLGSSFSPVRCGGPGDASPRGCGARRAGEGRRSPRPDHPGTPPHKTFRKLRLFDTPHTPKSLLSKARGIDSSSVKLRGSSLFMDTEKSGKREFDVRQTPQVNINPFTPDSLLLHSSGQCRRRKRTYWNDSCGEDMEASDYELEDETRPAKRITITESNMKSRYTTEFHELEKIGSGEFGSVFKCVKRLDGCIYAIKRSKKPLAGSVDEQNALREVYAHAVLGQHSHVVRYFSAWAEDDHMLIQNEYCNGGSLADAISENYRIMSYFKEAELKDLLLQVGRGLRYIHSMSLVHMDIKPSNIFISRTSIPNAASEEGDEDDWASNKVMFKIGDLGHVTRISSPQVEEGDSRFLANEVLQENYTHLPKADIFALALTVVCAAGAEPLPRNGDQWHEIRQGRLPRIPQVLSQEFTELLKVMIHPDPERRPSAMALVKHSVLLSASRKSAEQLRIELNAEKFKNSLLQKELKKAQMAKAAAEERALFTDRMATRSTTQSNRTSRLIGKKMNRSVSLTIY
Please be aware that the numbers have been log10-transformed from IC50 in nM.

Guide cases for log10 IC50, answers given:
1) CC(n1c(=O)c2cnc(Nc3ccc4c(c3)CNCC4)nc2n1-c1cccc(C(C)(C)C)n1)C(F)(F)F (stereo not drawn)
1.11
2) CC(C)n1c(=O)c2cnc(Nc3ccc4c(c3)CCNC4)nc2n1-c1ccnc(N(C)S(C)(=O)=O)c1
1.08
3) CCCn1c(=O)c2cnc(Nc3ccc4c(c3)CNCC4)nc2n1-c1cccc(C(C)(C)O)n1
0.18
4) CC(C)(C)c1cccc(-n2c3nc(Nc4ccc5c(c4)CNCC5)ncc3c(=O)n2C(C)(C)C)n1
3.40
5) CC(C)n1c(=O)c2cnc(Nc3ccc4c(c3)CNCC4)nc2n1-c1ccn(C)n1
1.63
6) CC(C)n1c(=O)c2cnc(Nc3ccc4c(c3)CCNC4)nc2n1-c1cccc(C(C)(C)F)n1
0.70
7) CC(C)n1c(=O)c2cnc(Nc3ccc4c(c3)CNCC4)nc2n1-c1cccc(C(C)(C)O)n1
0.30
8) CC(C)(C)c1cc(-n2c3nc(Nc4ccc5c(c4)CNCC5)ncc3c(=O)n2CC(F)(F)F)ccn1
2.03

Problem: Notebook entry, UniProt:P30291 assay: log10 IC50 of `CCn1c(=O)c2cnc(Nc3ccc4c(c3)CCNC4)nc2n1-c1cccc(C(C)(C)C)n1` = ?
Solution: -0.22
